Just for reference, the supplement of paper PMC3334620 is where these values come from.

- measurement target: Cst6 (UniProt P40535)
- Sequence (P40535 whole entry): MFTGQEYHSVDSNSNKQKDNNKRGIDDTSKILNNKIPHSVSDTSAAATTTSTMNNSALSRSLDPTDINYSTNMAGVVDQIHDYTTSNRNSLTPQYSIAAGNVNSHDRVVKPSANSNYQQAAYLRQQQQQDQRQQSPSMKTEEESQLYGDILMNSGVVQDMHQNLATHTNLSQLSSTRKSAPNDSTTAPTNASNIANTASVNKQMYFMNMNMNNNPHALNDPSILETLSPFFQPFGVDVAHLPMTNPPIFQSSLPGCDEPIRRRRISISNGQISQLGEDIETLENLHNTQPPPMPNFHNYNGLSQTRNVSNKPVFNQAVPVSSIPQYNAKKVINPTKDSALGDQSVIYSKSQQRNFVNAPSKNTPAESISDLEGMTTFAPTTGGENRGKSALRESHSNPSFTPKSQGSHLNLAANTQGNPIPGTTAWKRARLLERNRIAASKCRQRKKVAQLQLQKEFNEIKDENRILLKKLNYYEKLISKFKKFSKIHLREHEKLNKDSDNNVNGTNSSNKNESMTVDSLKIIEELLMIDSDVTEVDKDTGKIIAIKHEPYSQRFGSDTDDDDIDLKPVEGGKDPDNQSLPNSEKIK
- assay protocol: PBM E-score (8-mer binding enrichment) (E-score (-0.5 to 0.5)); higher = stronger / more preferred TF binding
- measurement conditions: protein concentration: 200 nM; construct: GST-DNA-binding domain
Over roughly 33,000 sequences, “E-score (-0.5 to 0.5)” has its median near -0.016; the highest 2% begin near 0.31. For the sample, the highest values were picked, then their nearest neighbours and some sequences at random.
Would you please tag the item t when its PBM E-score is 0.2 or above, and f when it is below?

For this sequence, is measured PBM E-score 0.2 or higher? "AAACAAAT"
f

For this sequence, is measured PBM E-score 0.2 or higher? "AATTCGCT"
t

For this sequence, is measured PBM E-score 0.2 or higher? "ATTATATC"
t

For this sequence, is measured PBM E-score 0.2 or higher? "CAAATAAC"
t

For this sequence, is measured PBM E-score 0.2 or higher? "AGGCGACT"
f

For this sequence, is measured PBM E-score 0.2 or higher? "GAAGAACC"
f

For this sequence, is measured PBM E-score 0.2 or higher? "CCCGCGGC"
f

For this sequence, is measured PBM E-score 0.2 or higher? "CCGGCTCG"
f

For this sequence, is measured PBM E-score 0.2 or higher? "TATGATCA"
t

For this sequence, is measured PBM E-score 0.2 or higher? "TCGGCACA"
f

For this sequence, is measured PBM E-score 0.2 or higher? "CACTTGGC"
f

For this sequence, is measured PBM E-score 0.2 or higher? "AGGGCGCA"
f

For this sequence, is measured PBM E-score 0.2 or higher? "CACGCGGC"
t

For this sequence, is measured PBM E-score 0.2 or higher? "CCGGCACG"
f

---

- measurement target: Cst6 (UniProt P40535)
- assay protocol: PBM E-score (8-mer binding enrichment) (E-score (-0.5 to 0.5)); higher = stronger / more preferred TF binding
- measurement conditions: protein concentration: 200 nM; construct: GST-DNA-binding domain
The full ranking holds about 33,000 sequences; the median of “E-score (-0.5 to 0.5)” is about -0.016, and the highest 2% start at about 0.31. Many of the other results were omitted from the sample, so the highest values are more common in it than they were.
test readout: PBM E-score
Output: the number by itself.

Provide only the value of recorded PBM E-score for "CCAGCTCA"
-0.146

Provide only the value of recorded PBM E-score for "ACGTATTA"
0.33

Provide only the value of recorded PBM E-score for "AGGAGCGG"
-0.207

Provide only the value of recorded PBM E-score for "AGGCGCCA"
0.0572

Provide only the value of recorded PBM E-score for "ATATTACA"
0.248

Provide only the value of recorded PBM E-score for "CCGTATAA"
0.225

Provide only the value of recorded PBM E-score for "TACGTAGA"
0.224

Provide only the value of recorded PBM E-score for "ACGTCAAG"
0.373

Provide only the value of recorded PBM E-score for "CCACCGAC"
-0.163

Provide only the value of recorded PBM E-score for "ATCGGCTA"
-0.138

Provide only the value of recorded PBM E-score for "AGGTCAAG"
-0.0961

Provide only the value of recorded PBM E-score for "ATGTCTGG"
-0.0099

Provide only the value of recorded PBM E-score for "AACTGCCG"
0.114

Provide only the value of recorded PBM E-score for "ACGGTCAC"
0.152

Provide only the value of recorded PBM E-score for "AGCAAGCG"
-0.11

Provide only the value of recorded PBM E-score for "ATCCAATA"
0.222

Provide only the value of recorded PBM E-score for "CCCAATCG"
-0.0318

Provide only the value of recorded PBM E-score for "GGTTGCGA"
-0.0447

Provide only the value of recorded PBM E-score for "ATTTAATA"
0.338

Provide only the value of recorded PBM E-score for "CCTAGTAA"
-0.194

Provide only the value of recorded PBM E-score for "ACGGTAAA"
0.129

Provide only the value of recorded PBM E-score for "CCGTCAAG"
-0.129

Provide only the value of recorded PBM E-score for "CATGAGAG"
0.0742

Provide only the value of recorded PBM E-score for "CATGCAAA"
0.142

Provide only the value of recorded PBM E-score for "GGTAATGA"
0.213

Provide only the value of recorded PBM E-score for "AGCTGTGA"
0.135

Provide only the value of recorded PBM E-score for "CCGTATAC"
-0.015

Provide only the value of recorded PBM E-score for "CCGTCACA"
0.139

Provide only the value of recorded PBM E-score for "AGTAATGA"
0.247

Provide only the value of recorded PBM E-score for "GAGCCAGC"
-0.299

Provide only the value of recorded PBM E-score for "AAATTACC"
0.199

Provide only the value of recorded PBM E-score for "ATCAAGGA"
-0.0436

Provide only the value of recorded PBM E-score for "AATTAATG"
0.174

Provide only the value of recorded PBM E-score for "GTGCTATA"
0.0846

Provide only the value of recorded PBM E-score for "GGAGTTTA"
0.00491

Provide only the value of recorded PBM E-score for "TACTAATA"
0.222

Provide only the value of recorded PBM E-score for "AATGCCGG"
-0.0561

Provide only the value of recorded PBM E-score for "GGGAGTCA"
-0.153

Provide only the value of recorded PBM E-score for "GGGTCACC"
-0.153

Provide only the value of recorded PBM E-score for "ACTGTGGG"
-0.0161

Provide only the value of recorded PBM E-score for "AAGTCACC"
0.188

Provide only the value of recorded PBM E-score for "GGGTCGCA"
-0.144

Provide only the value of recorded PBM E-score for "CACGTACA"
-0.0529

Provide only the value of recorded PBM E-score for "GCGTCACA"
0.417

Provide only the value of recorded PBM E-score for "GACGTATA"
0.322

Provide only the value of recorded PBM E-score for "CCGTCACG"
0.176

Provide only the value of recorded PBM E-score for "AGGCGCCG"
0.325

Provide only the value of recorded PBM E-score for "CTGGACTA"
-0.267

Provide only the value of recorded PBM E-score for "CTTAATGC"
0.142

Provide only the value of recorded PBM E-score for "AGGCGCCT"
0.207

Provide only the value of recorded PBM E-score for "GAAACCTA"
-0.148

Provide only the value of recorded PBM E-score for "GATTAATA"
0.261

Provide only the value of recorded PBM E-score for "CTATTCAA"
0.197

Provide only the value of recorded PBM E-score for "CAGACCCC"
-0.316

Provide only the value of recorded PBM E-score for "CATAGAGG"
-0.0937

Provide only the value of recorded PBM E-score for "CGTAATGC"
0.365

Provide only the value of recorded PBM E-score for "TACGTATA"
0.328

Provide only the value of recorded PBM E-score for "AACCTTCG"
0.0222

Provide only the value of recorded PBM E-score for "TCACGGCA"
0.224

Provide only the value of recorded PBM E-score for "AGTCTAGA"
-0.124

Provide only the value of recorded PBM E-score for "CAGCTGCC"
-0.146

Provide only the value of recorded PBM E-score for "ATTCTGAC"
0.181

Provide only the value of recorded PBM E-score for "TGGTCACA"
0.0201

---

Field: PBM E-score. Provide a value for each of the sequences that follow.
- measurement target: Cst6 (UniProt P40535)
- assay protocol: PBM E-score (8-mer binding enrichment) (E-score (-0.5 to 0.5)); higher = stronger / more preferred TF binding
- measurement conditions: protein concentration: 200 nM; construct: GST-DNA-binding domain
In all, about 33,000 sequences were measured (“E-score (-0.5 to 0.5)”: median about -0.016, highest 2% from about 0.31 on). The full list was thinned out, with the highest values kept by preference.
Output: the number by itself.

Provide only the value of recorded PBM E-score for "ATGCGGCC"
0.0608

Provide only the value of recorded PBM E-score for "ACACTACT"
0.0264

Provide only the value of recorded PBM E-score for "GCTGGTCC"
-0.241

Provide only the value of recorded PBM E-score for "CGCTGCGA"
0.0077

Provide only the value of recorded PBM E-score for "AGCCCCAC"
-0.161

Provide only the value of recorded PBM E-score for "GCACTCTA"
-0.0783

Provide only the value of recorded PBM E-score for "AGGTTCGC"
-0.315

Provide only the value of recorded PBM E-score for "CATGCGGC"
0.33

Provide only the value of recorded PBM E-score for "CGTGCGGC"
0.321
